Measured values drawn from patent US8802597B2 for this set.

system: purple redstem (Ammannia coccinea); assay: Test E flooded paddy water application; format: in vivo; conditions: 32 g ai/ha; Flood; 21 days; scale 0 to 100 (0 no effect, 100 complete control)
Listed next: entries and their corresponding Redstem plant response rating.
The answer should be a number; do not append a unit.

# structure-smiles-string, reading
records = [
    ("CCOC(=O)c1nc(-c2ccc(CC)cc2)nc(N)c1Cl", 0),
    ("Cc1ccc(-c2nc(N)c(Cl)c(C(=O)O)n2)cc1", 0),
    ("CCOC(=O)c1nc(-c2ccc(C)c(C)c2)nc(N)c1Br", 0),
    ("CCOC(=O)c1nc(-c2ccc(Cl)cc2)nc(N)c1Br", 0),
    ("COC(=O)c1nc(-c2ccc(Br)cc2)nc(N)c1Cl", 85),
]

Tell me the measured Redstem plant response rating of `CCOC(=O)c1nc(-c2ccc(C)cc2)nc(N)c1Cl` , please.
75

Tell me the measured Redstem plant response rating of `COC(=O)c1nc(-c2ccc(I)cc2)nc(N)c1Br` , please.
75

* * *

test system: late watergrass (Echinochloa oryzicola); experiment: Test E flooded paddy water application; type: in vivo; conditions: 250 g ai/ha; Flood; 21 days; scale 0 to 100 (0 no effect, 100 complete control)
Listed next: entries and their corresponding Watergrass, Late plant response rating.
The answer should be a number; do not append a unit.

Known results for molecules:
# structure-smiles-string, tested-system, Watergrass, Late plant response rating
data = [
    ("CCOC(=O)c1nc(-c2ccc(Cl)c(Cl)c2)nc(N)c1Cl", "late watergrass (Echinochloa oryzicola)", 20),
    ("Nc1nc(-c2ccc(Cl)cc2)nc(C(=O)O)c1Cl", "late watergrass (Echinochloa oryzicola)", 25),
    ("COC(=O)c1nc(-c2ccc(Br)cc2)nc(N)c1Cl", "late watergrass (Echinochloa oryzicola)", 0),
    ("CCOC(=O)c1nc(-c2ccc(Cl)cc2)nc(N)c1Cl", "late watergrass (Echinochloa oryzicola)", 20),
    ("CCOC(=O)c1nc(-c2ccc(F)cc2)nc(N)c1Br", "late watergrass (Echinochloa oryzicola)", 0),
]

Tell me the measured Watergrass, Late plant response rating of `CCOC(=O)c1nc(-c2ccc(C)cc2)nc(N)c1Cl` , please.
20

Tell me the measured Watergrass, Late plant response rating of `CCOC(=O)c1nc(-c2ccc(I)cc2)nc(N)c1Cl` , please.
0

Tell me the measured Watergrass, Late plant response rating of `CCOC(=O)c1nc(-c2ccc(Cl)cc2)nc(N)c1Br` , please.
0

Tell me the measured Watergrass, Late plant response rating of `CCOC(=O)c1nc(-c2ccc(OC)cc2)nc(N)c1Cl` , please.
0

Tell me the measured Watergrass, Late plant response rating of `COC(=O)c1nc(-c2ccc(Cl)cc2)nc(N)c1Cl` , please.
0

* * *

test system: corn (Zea mays); experiment: Test C pre/postemergence; format: in vivo; conditions: Preemergence, 250 g ai/ha; scale 0 to 100
Listed next: entries and their corresponding Plant response rating, Corn.
The answer should be a number; do not append a unit.

# compound, reading
rows = [
    ("CCOC(=O)c1nc(C2CC2)nc(N=CN(C)C)c1Br", 20),
    ("CC(C)COC(=O)c1nc(C2CC2)nc(N)c1Br", 75),
    ("COC(=O)CNc1nc(C2CC2)nc(C(=O)OC)c1Br", 0),
    ("CCCOC(=O)c1nc(C2CC2)nc(N)c1Br", 45),
]

Lab note: need Plant response rating, Corn with corn (Zea mays) for entry CCOC(=O)C(Cl)c1nc(C2CC2)nc(N)c1Br (stereo not shown) , please look it up.
0

Lab note: need Plant response rating, Corn with corn (Zea mays) for entry `CNN=Cc1nc(C2CC2)nc(N)c1Br` , please look it up.
15

Lab note: need Plant response rating, Corn with corn (Zea mays) for entry `COC(=O)Cc1nc(C2CC2)nc(N)c1Br` , please look it up.
30

* * *

system: corn (Zea mays); test: Test C pre/postemergence; assay type: in vivo; settings: Postemergence, 250 g ai/ha; scale 0 to 100
measurement-label: Plant response rating, Corn
The answer should be a number; do not append a unit.

Tell me the measured Plant response rating, Corn of `Nc1nc(-c2ccc(Cl)cc2)nc(C(=O)O)c1Br` , please.
30

Tell me the measured Plant response rating, Corn of `CC(C)COC(=O)c1nc(C2CC2)nc(N)c1Br` , please.
20

Tell me the measured Plant response rating, Corn of `CCOC(=O)c1nc(-c2ccc(Cl)cc2)nc(N)c1Br` , please.
15

Tell me the measured Plant response rating, Corn of `CCCOC(=O)c1nc(C2CC2)nc(N)c1Br` , please.
55

* * *

tested on: rice flatsedge (Cyperus iria); test: Test E flooded paddy water application; type: in vivo; conditions: 64 g ai/ha; Flood; 21 days; scale 0 to 100 (0 no effect, 100 complete control)
Listed next: entries and their corresponding Flatsedge, Rice plant response rating.
The answer should be a number; do not append a unit.

Known results for compounds:
# compound, measurement-label, reading
measured = [
    ("CCOC(=O)c1nc(-c2ccc(Cl)cc2Cl)nc(N)c1Cl [Compound 72]", "Flatsedge, Rice plant response rating", 100),
    ("CCOC(=O)c1nc(-c2ccc(F)cc2)nc(N)c1Br [Compound 63]", "Flatsedge, Rice plant response rating", 75),
]

Lab note: need Flatsedge, Rice plant response rating with rice flatsedge (Cyperus iria) for entry CCOC(=O)c1nc(-c2ccc(C)c(C)c2)nc(N)c1Cl [Compound 71] , please look it up.
0

Lab note: need Flatsedge, Rice plant response rating with rice flatsedge (Cyperus iria) for entry CCOC(=O)c1nc(-c2ccc(C)c(C)c2)nc(N)c1Br [Compound 70] , please look it up.
0

Lab note: need Flatsedge, Rice plant response rating with rice flatsedge (Cyperus iria) for entry Nc1nc(-c2ccc(Cl)cc2)nc(C(=O)O)c1Br [Compound 88] , please look it up.
100

* * *

tested on: barnyardgrass (Echinochloa crus-galli); test: Test A pre/postemergence; type: in vivo; conditions: Echinochloa crus-galli, post-emergence, 240 h, Postemergence, 500 g ai/ha; 0 to 100 scale (0 no effect, 100 complete control); read-out: Plant response rating, Barnyardgrass
Listed next: entries and their corresponding pest or weed control at 500 g/ha.
Dear colleague, please return just the value in %, with no unit written.

Known results for compounds:
# compound, tested-system, pest or weed control at 500 g/ha (%)
rows = [
    ("Nc1nc(-c2ccc(Br)cc2)nc(C(=O)O)c1Cl", "barnyardgrass (Echinochloa crus-galli)", 90),
    ("Nc1nc(C2CC2)nc(C(=O)[O-])c1Cl.[Na+] [Compound 77, monosodium salt]", "barnyardgrass (Echinochloa crus-galli)", 90),
    ("COC(=O)c1nc(C2CC2)nc(N)c1OC", "barnyardgrass (Echinochloa crus-galli)", 30),
    ("COC(=O)c1nc(-c2ccc(Br)cc2)nc(N)c1Cl", "barnyardgrass (Echinochloa crus-galli)", 25),
    ("COC(=O)c1nc(-c2ccc(Cl)cc2)nc(N)c1Cl", "barnyardgrass (Echinochloa crus-galli)", 10),
]

// next entry
Tell me the measured pest or weed control at 500 g/ha of `COC(=O)c1nc(C(C)C)nc(N)c1Cl` , please.
10

* * *

test system: wheat (Triticum aestivum); assay: Test B pre/postemergence; format: in vivo; conditions: Preemergence, 500 g ai/ha; scale 0 to 100 (0 no effect, 100 complete control)
Listed next: entries and their corresponding Wheat plant response rating.
The answer should be a number; do not append a unit.

# molecule, reading
data = [
    ("COC(=O)c1nc(C2CC2)nc(N=CN(C)C)c1Br", 60),
    ("CCCOC(=O)c1nc(C2CC2)nc(N)c1Br", 60),
    ("COC(=O)Cc1nc(C2CC2)nc(N)c1Br", 60),
    ("CCOC(=O)Cc1nc(C2CC2)nc(N=CN(C)C)c1Br", 50),
    ("COCc1nc(C2CC2)nc(N)c1Br", 50),
]

Tell me the measured Wheat plant response rating of CCOC(=O)C(Cl)c1nc(C2CC2)nc(N)c1Br (stereo not drawn) , please.
70

* * *

system: lambsquarters (Chenopodium album); test: Test C pre/postemergence; assay type: in vivo; settings: Postemergence, 125 g ai/ha; scale 0 to 100 (0 no effect, 100 complete control)
measurement-label: Lambsquarters plant response rating
The answer should be a number; do not append a unit.

Known results for molecules:
# molecule, tested-system, Lambsquarters plant response rating
rows = [
    ("CC(C)COC(=O)c1nc(C2CC2)nc(N)c1Br", "lambsquarters (Chenopodium album)", 100),
    ("CCOC(=O)C(OC(C)=O)c1nc(C2CC2)nc(N)c1Br (stereo not shown)", "lambsquarters (Chenopodium album)", 80),
    ("COCc1nc(C2CC2)nc(N)c1Br", "lambsquarters (Chenopodium album)", 80),
]

// next entry
Tell me the measured Lambsquarters plant response rating of `CCCCOC(=O)c1nc(C2CC2)nc(N)c1Cl` , please.
100
